Please respond with reported Ki for every item in the list.
Molecular target: T1, wild-type rat apelin receptor-EGFP (rat, UniProt Q9JHG3 1-377, EGFP is fused at the C-terminal (intracellular) end of the receptor. It is not included in the letters.)
T1 sequence: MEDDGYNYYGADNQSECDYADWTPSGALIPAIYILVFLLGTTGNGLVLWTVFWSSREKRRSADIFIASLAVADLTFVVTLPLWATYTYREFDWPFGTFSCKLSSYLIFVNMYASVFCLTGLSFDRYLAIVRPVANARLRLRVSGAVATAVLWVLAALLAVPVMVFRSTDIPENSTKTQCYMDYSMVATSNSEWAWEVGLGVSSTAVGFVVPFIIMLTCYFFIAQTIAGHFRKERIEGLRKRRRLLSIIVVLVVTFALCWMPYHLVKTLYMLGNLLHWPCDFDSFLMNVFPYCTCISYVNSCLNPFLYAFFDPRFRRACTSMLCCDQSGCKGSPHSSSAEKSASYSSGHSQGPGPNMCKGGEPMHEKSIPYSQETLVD
Test: competitive radioligand binding vs [125I]-pE13F, rat apelin receptor-EGFP in CHO membranes
Where no end group is shown, it is not given here.
The answer should read as a number with its unit following.

Ask: Item under review: XRPRLSXKGPMPF (pGlu at 1; Aib (α-aminoisobutyric acid) at 7) [pE13F(Aib^7)] . Reported Ki?
Result: 2.6 nM

Ask: Item under review: Ac-RPRLSHKGPMPF [Ac-R12F] . Reported Ki?
Result: 1.4 nM
